biological target: αvβ3 integrin (Homo sapiens, UniProt P05106+P06756); construct: Purified human αvβ3 integrin protein; with integrin αv subunit (ITGAV); assay: SPR (Biacore […], immobilized αvβ[…]); also 3H-25HC binding with fractalkine-CD competition and biotin-25HC pull-down
pKd: −log10 of the molar value.

[
  {
    "molecule": "C[C@H](CCCC(C)(C)O)[C@H]1CC[C@H]2[C@@H]3CC=C4C[C@@H](O)CC[C@]4(C)[C@H]3CC[C@]12C [25HC, 25-hydroxycholesterol]",
    "pKd": 7.96
  }
]
